FYI, the data here is from paper PMC8279409.

Target: human NOP receptor (Homo sapiens, UniProt P41146)
Construct: expressed in transfected cells; host or cells: CHO cells stably coexpressing the receptor and chimeric Gαqi5
Sequence (P41146 whole entry): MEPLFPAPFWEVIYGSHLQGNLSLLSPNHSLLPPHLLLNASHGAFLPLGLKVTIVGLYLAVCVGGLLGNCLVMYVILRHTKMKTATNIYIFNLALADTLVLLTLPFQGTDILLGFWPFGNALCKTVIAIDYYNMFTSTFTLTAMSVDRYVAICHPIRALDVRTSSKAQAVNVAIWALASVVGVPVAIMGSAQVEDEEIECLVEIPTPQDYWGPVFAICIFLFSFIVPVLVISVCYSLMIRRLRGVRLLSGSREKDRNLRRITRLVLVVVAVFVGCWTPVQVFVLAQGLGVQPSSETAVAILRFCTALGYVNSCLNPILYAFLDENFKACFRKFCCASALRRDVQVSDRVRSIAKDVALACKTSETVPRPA
Assay: Calcium mobilization, NOP receptor
Assay type: cell-based
Conditions: Table 2 series; calcium mobilization, NOP versus mu
Method: CHO cells stably coexpressing the human NOP or kappa or the mu receptor and the C-terminally modified Gαqi5 and CHO cells coexpressing the delta receptor and the GαqG66Di5 protein were generated and cultured as described previously.[45],[46] […] After placing both plates (cell culture and master plate) into the fluorometric imaging plate reader FlexStation II (Molecular Devices, Sunnyvale, CA), fluorescence changes were measured. […]
Where a SMILES comes first, the peptide text is derived from it. [ ]: non-standard residue; d: D form. Bip = N[C@@H](Cc1ccc(-c2ccccc2)cc1)C(=O)O; Dip = N[C@H](C(=O)O)C(c1ccccc1)c1ccccc1; 1Nal = N[C@@H](Cc1cccc2ccccc12)C(=O)O; 2Nal = N[C@@H](Cc1ccc2ccccc2c1)C(=O)O; hPhe = N[C@@H](CCc1ccccc1)C(=O)O; Phg = N[C@H](C(=O)O)c1ccccc1
Exercise: state measured NOP/mu CR (concentration ratio) for each of the molecules provided.

Item C[C@H](NC(=O)CNC(=O)[C@H](Cc1cccc2ccccc12)NC(=O)[C@H](Cc1ccccc1)NC(=O)CNC(=O)CNC(=O)[C@@H](N)Cc1ccc(O)cc1)C(=O)N[C@@H](CCCNC(=N)N)C(=O)N[C@@H](CCCCN)C(=O)N[C@@H](CO)C(=O)N[C@@H](C)C(=O)N[C@@H](CCCNC(=N)N)C(=O)N[C@@H](CCCCN)C(N)=O [Compound 25, [Tyr^1,1Nal^5]N/OFQ(1-13)-NH2] (H-YGGF[1Nal]GARKSARK-NH2) : provide NOP/mu CR (concentration ratio)
0.08

Item C[C@H](NC(=O)CNC(=O)[C@@H](NC(=O)[C@H](Cc1ccccc1)NC(=O)CNC(=O)CNC(=O)[C@@H](N)Cc1ccc(O)cc1)c1ccccc1)C(=O)N[C@@H](CCCNC(=N)N)C(=O)N[C@@H](CCCCN)C(=O)N[C@@H](CO)C(=O)N[C@@H](C)C(=O)N[C@@H](CCCNC(=N)N)C(=O)N[C@@H](CCCCN)C(N)=O [Compound 19, [Tyr^1,Phg^5]N/OFQ(1-13)-NH2] (H-YGGF[Phg]GARKSARK-NH2) : provide NOP/mu CR (concentration ratio)
0.17

Item C[C@H](NC(=O)CNC(=O)[C@H](Cc1ccc2ccccc2c1)NC(=O)[C@H](Cc1ccccc1)NC(=O)CNC(=O)CNC(=O)[C@@H](N)Cc1ccc(O)cc1)C(=O)N[C@@H](CCCNC(=N)N)C(=O)N[C@@H](CCCCN)C(=O)N[C@@H](CO)C(=O)N[C@@H](C)C(=O)N[C@@H](CCCNC(=N)N)C(=O)N[C@@H](CCCCN)C(N)=O [Compound 26, [Tyr^1,2Nal^5]N/OFQ(1-13)-NH2] (H-YGGF[2Nal]GARKSARK-NH2) : provide NOP/mu CR (concentration ratio)
0.19

Item C[C@H](NC(=O)CNC(=O)[C@H](Cc1ccc(-c2ccccc2)cc1)NC(=O)[C@H](Cc1ccccc1)NC(=O)CNC(=O)CNC(=O)[C@@H](N)Cc1ccc(O)cc1)C(=O)N[C@@H](CCCNC(=N)N)C(=O)N[C@@H](CCCCN)C(=O)N[C@@H](CO)C(=O)N[C@@H](C)C(=O)N[C@@H](CCCNC(=N)N)C(=O)N[C@@H](CCCCN)C(N)=O [Compound 24, [Tyr^1,Bip^5]N/OFQ(1-13)-NH2] (H-YGGF[Bip]GARKSARK-NH2) : provide NOP/mu CR (concentration ratio)
0.15

Item C[C@H](NC(=O)CNC(=O)[C@@H](NC(=O)[C@H](Cc1ccccc1)NC(=O)CNC(=O)CNC(=O)[C@@H](N)Cc1ccc(O)cc1)C(c1ccccc1)c1ccccc1)C(=O)N[C@@H](CCCNC(=N)N)C(=O)N[C@@H](CCCCN)C(=O)N[C@@H](CO)C(=O)N[C@@H](C)C(=O)N[C@@H](CCCNC(=N)N)C(=O)N[C@@H](CCCCN)C(N)=O [Compound 23, [Tyr^1,Dip^5]N/OFQ(1-13)-NH2] (H-YGGF[Dip]GARKSARK-NH2) : provide NOP/mu CR (concentration ratio)
1.48

Item C[C@H](NC(=O)CNC(=O)[C@H](CCc1ccccc1)NC(=O)[C@H](Cc1ccccc1)NC(=O)CNC(=O)CNC(=O)[C@@H](N)Cc1ccc(O)cc1)C(=O)N[C@@H](CCCNC(=N)N)C(=O)N[C@@H](CCCCN)C(=O)N[C@@H](CO)C(=O)N[C@@H](C)C(=O)N[C@@H](CCCNC(=N)N)C(=O)N[C@@H](CCCCN)C(N)=O [Compound 18, [Tyr^1,hPhe^5]N/OFQ(1-13)-NH2] (H-YGGF[hPhe]GARKSARK-NH2) : provide NOP/mu CR (concentration ratio)
0.003
